B1: OR4K15 (parent)
chain: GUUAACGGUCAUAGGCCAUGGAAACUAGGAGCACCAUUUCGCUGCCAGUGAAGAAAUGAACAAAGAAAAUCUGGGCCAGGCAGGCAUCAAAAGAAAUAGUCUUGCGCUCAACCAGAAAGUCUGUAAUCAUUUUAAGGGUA

- Variants of: B1
- assay notes: self-cleavage, relative activity (ratio to wild type); higher = more cleavage; in vitro, sequencing; the parent is a self-cleaving ribozyme
reported endpoint: self-cleavage
Just the number, please, no unit attached.

Answered examples (5):
mutation spec	obs value
A68C A82U	0.23
G93U A135G	1.96
A11C A125G	0.5
U122C A125G	0.38
A23U A60G	1.24

Exam item: Specify reported self-cleavage for the variant shown: A30G A62C
Marked response: 1.38

Exam item: Specify reported self-cleavage for the variant shown: A63U A69G
Marked response: 0.49

Exam item: Specify reported self-cleavage for the variant shown: U3C A110U
Marked response: 1.16

Exam item: Specify reported self-cleavage for the variant shown: C40A A111G
Marked response: 0.02
